# Assayed System: HLA-A*02:12
# Experimental Protocol: IEDB peptide-MHC binding, purified MHC/direct/fluorescence; filed as Kd, often an IC50 or EC50 that approximates it; bounds were set here for any values at or beyond the usual limits of such assays
# Assay Context: source organism: Vibrio vulnificus YJ016
Property: pKd
Scale: pKd equals -log10([C]), with [C] in mol/L.

Form: Entry = SVFELSNFA | System = HLA-A*02:12 | pKd = ____
6.17

====

# Assayed System: HLA-B*08:01
# Experimental Protocol: IEDB peptide-MHC binding, purified MHC/competitive/radioactivity; filed as Kd, often an IC50 or EC50 that approximates it; bounds were set here for any values at or beyond the usual limits of such assays
# Assay Context: source organism: Dengue virus 3 Sri Lanka/1266/2000
Property: pKd
Field pKd (float): negative decimal logarithm of the concentration in molar.

Reported pKd for CLMMILPAA : what is it?
5.97
